biological target: T1, human ROR1-hFc fusion protein (extracellular domain) (human); test: SPR, human ROR1 ECD-Fc on chip;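 also: SPR binding kinetics of VNAR and VNAR-Fc molecules run at a range of concentrations over immobilised target, rate and affinity constants fitted with QDat software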
T1 construct: Whole entry 'human ROR1-Fc (CHO)'; also called hROR1; huROR1-Fc
T1 sequence (chain, as listed by the source limits assumed): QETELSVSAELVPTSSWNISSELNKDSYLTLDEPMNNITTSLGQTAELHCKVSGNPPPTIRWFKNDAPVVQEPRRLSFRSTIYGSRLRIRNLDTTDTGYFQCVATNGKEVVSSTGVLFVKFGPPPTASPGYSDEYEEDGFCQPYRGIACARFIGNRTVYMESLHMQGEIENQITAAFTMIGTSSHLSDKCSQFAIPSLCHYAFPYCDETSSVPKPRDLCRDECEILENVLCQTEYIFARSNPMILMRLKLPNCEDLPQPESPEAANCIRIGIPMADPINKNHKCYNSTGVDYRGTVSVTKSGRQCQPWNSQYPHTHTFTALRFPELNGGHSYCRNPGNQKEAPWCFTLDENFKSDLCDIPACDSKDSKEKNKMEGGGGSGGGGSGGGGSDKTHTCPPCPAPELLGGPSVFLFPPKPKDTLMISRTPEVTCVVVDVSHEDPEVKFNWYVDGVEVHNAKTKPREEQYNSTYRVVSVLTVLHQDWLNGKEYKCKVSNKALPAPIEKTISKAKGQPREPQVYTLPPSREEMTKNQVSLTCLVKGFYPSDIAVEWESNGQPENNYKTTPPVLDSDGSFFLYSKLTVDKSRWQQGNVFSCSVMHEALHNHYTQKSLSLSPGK
Quantity Measured: koff (s⁻¹)
Express it in s⁻¹; write the number only.

Challenge: Please look at this binder and report its koff: B1 humanised V5 with His6myc tag (VNAR, VNAR; also called B1V5) VNAR: ASVDQSPSSLSASVGDRVTITCVVTGANYGLAATYWYRKNPGSSNQERISISGRYSESVNKRTMSFTLTISSLQPEDSATYYCKAYPWGAGAPWLVQWYDGAGTKVEIKQ
Response given: 3.85e-05

Challenge: Please look at this binder and report its koff: B1 G2 (humanised/grafted B1) with His6myc tag (VNAR, VNAR) VNAR: TRVDQSPSSLSASVGDRVTITCVLTGANYGLASTYWYRKNPGSSNQERISISGRYSESVNKRTMSFTLTISSLQPEDSATYYCRAYPWGAGAPWLVQWYDGAGTKVEIKQ
Response given: 0.0079

Challenge: Please look at this binder and report its koff: D3 ADV2 dimer (VNAR, Listing names it 'D3V2 dimer'; also called D3V2 dimer) TRVDQSPSSLSASVGDRVTITCVLTDTSYGLYSTSWFRKNPGTTDWERMSIGGRYSESVNKGAKSFTLTISSLQPEDSATYYCKAQSGMAISTGSGHGYNWYDGAGTKVEIKGGGGSGGGGSGGGGSGGGGSGGGGSTRVDQSPSSLSASVGDRVTITCVLTDTSYGLYSTSWFRKNPGTTDWERMSIGGRYSESVNKGAKSFTLTISSLQPEDSATYYCKAQSGMAISTGSGHGYNWYDGAGTKVEIKQASGAHHHHHHGAEFEQKLISEEDL
Response given: 0.016

Challenge: Please look at this binder and report its koff: D3 humanised ADV2 with His6myc tag (VNAR, VNAR; also called D3 AD V2) VNAR: TRVDQSPSSLSASVGDRVTITCVLTDTSYGLYSTSWFRKNPGTTDWERMSIGGRYSESVNKGAKSFTLTISSLQPEDSATYYCKAQSGMAISTGSGHGYNWYDGAGTKVEIKQ
Response given: 0.00236

Challenge: Please look at this binder and report its koff: P3A1 V1 dimer (VNAR) TRVDQSPSSLSASVGDRVTITCVLTDTSYGLYSTSWFRKNPGTTDWERMSIGGRYVESVNKGAKSFTLTISSLQPEDFATYYCKAREARHPWLRQWYDGAGTKVEIKGGGGSGGGGSGGGGSGGGGSGGGGSTRVDQSPSSLSASVGDRVTITCVLTDTSYGLYSTSWFRKNPGTTDWERMSIGGRYVESVNKGAKSFTLTISSLQPEDFATYYCKAREARHPWLRQWYDGAGTKVEIKQASGAHHHHHHGAEFEQKLISEEDL
Response given: 0.000846

Challenge: Please look at this binder and report its koff: P3A1-[G4S]5-P3A1 his myc (VNAR, VNAR homodimer by genetic fusion; also called P3A1-P3A1; P3A1 dimer) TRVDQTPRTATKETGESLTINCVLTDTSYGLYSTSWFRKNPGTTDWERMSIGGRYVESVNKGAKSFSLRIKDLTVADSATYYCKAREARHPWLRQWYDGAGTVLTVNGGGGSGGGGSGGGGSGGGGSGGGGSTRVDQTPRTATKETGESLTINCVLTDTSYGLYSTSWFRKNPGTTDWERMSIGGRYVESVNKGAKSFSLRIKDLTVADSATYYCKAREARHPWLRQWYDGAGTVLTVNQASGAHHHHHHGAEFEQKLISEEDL
Response given: 0.00117

These entries and their values trace back to patent US20230203155A1.
